Tested on: Yap1 mRNA
test-name: Dose-dependent inhibition of human Yap1 in A-431 cells (Example 24, 11,000 cells per well, RTS36584, normalized to GAPDH)
Format: cell-based
reported-conditions: 0.04 μM, free uptake, 48 hours, RTS36584, normalized to GAPDH
Reported Yap1 mRNA, % UTC values for the following substances.
Your answer should be a plain number; it is taken to be in % UTC.

Example entries and their recorded answers appear below.
{"substance": "1197270 (TTAAAGTGTATGTCAG; cEt gapmer with 2'-OMe nucleoside, phosphorothioate, further chemistry not given here) [compound 1197270]", "readout-units": "% UTC", "Yap1 mRNA, % UTC": 26}
{"substance": "1198623 (CTAAGTAAGGTTTCCC; modified gapmer, further chemistry not given here) [compound 1198623]", "readout-units": "% UTC", "Yap1 mRNA, % UTC": 28}
{"substance": "958499 (ATTAGAGTATGTGGCA; 3-10-3 cEt gapmer, further chemistry not given here) [compound 958499]", "readout-units": "% UTC", "Yap1 mRNA, % UTC": 28}
{"substance": "1198605 (GTAATATTGCAATCTG; modified gapmer, further chemistry not given here) [compound 1198605]", "readout-units": "% UTC", "Yap1 mRNA, % UTC": 26}
{"substance": "1198440 (AAGTGTATGTCAGAAG; cEt, 2'-MOE, 5-methylcytosine, phosphorothioate modifications, further chemistry not given here) [compound 1198440]", "readout-units": "% UTC", "Yap1 mRNA, % UTC": 14}
{"substance": "1198831 (CACTTTTACATTAGGA; chemically modified gapmer, further chemistry not given here) [compound 1198831]", "readout-units": "% UTC", "Yap1 mRNA, % UTC": 28}

// sample 1076453 (GTAATATTGCAATCTG; 3-10-3 cEt gapmer, further chemistry not given here) [compound 1076453] , its Yap1 mRNA, % UTC was 23

Entry 1198439 (AGTGTATGTCAGAAGA; sugar, 5-methylcytosine, phosphorothioate modifications, further chemistry not given here) [compound 1198439] — recorded Yap1 mRNA, % UTC = 11

Reported Yap1 mRNA, % UTC ( 1198872 (TGTATGTCAGAAGAGT; chemically modified gapmer, further chemistry not given here) [compound 1198872] ) = 19

Entry 1198728 (TATTAGAGTATGTGGC; modified gapmer, further chemistry not given here) [compound 1198728] , Yap1 mRNA, % UTC reported as 27

###

Tested on: Yap1 mRNA
test-name: Antisense inhibition of human Yap1 in A-431 cells by cEt gapmers, single dose (Example 4, RTS4814)
Format: cell-based
reported-conditions: Yap1 mRNA remaining as percent of untreated control; 3-10-3 cEt gapmers; A-431 cells; Table 36
Strand notation (5' to 3'): a small letter for the sugar, then the base; units joined by * are phosphorothioate-linked, units joined directly phosphodiester-linked; [ ] holds rarer units or linkages, { } end groups; capitals alone tell only the bases. k = constrained ethyl (cEt); [5mC] = 5-methylcytosine; d = 2'-deoxy (DNA)
# YAP1 (% UTC) listing for each entry below
State just the number; it will be interpreted in % UTC.

{"substance": "1076310 (kA*k[5mC]*k[5mC]*d[5mC]*dT*dA*dT*dA*d[5mC]*dT*dT*dG*dA*kA*kT*kT; antisense) [compound 1076310]", "measured-on": "Yap1 mRNA", "experimental-result": 36}
{"substance": "1074550 (DNA kA*kT*kA*dT*d[5mC]*dT*dA*d[5mC]*d[5mC]*dG*dT*dA*dT*kG*k[5mC]*k[5mC]; antisense) [compound 1074550]", "measured-on": "Yap1 mRNA", "experimental-result": 23}

Form: substance = 1075702 (kG*kA*kG*dG*dA*dA*dG*dG*dG*d[5mC]*dA*d[5mC]*d[5mC]*kT*kT*kT; antisense) [compound 1075702] ; YAP1 (% UTC) = 81
